- SYSTEM UNDER TEST: P2X7 receptor (Homo sapiens, UniProt Q99572)
- Construct: host or cells: THP-1 cells differentiated with LPS and IFN-γ
- Sequence (Q99572 whole entry): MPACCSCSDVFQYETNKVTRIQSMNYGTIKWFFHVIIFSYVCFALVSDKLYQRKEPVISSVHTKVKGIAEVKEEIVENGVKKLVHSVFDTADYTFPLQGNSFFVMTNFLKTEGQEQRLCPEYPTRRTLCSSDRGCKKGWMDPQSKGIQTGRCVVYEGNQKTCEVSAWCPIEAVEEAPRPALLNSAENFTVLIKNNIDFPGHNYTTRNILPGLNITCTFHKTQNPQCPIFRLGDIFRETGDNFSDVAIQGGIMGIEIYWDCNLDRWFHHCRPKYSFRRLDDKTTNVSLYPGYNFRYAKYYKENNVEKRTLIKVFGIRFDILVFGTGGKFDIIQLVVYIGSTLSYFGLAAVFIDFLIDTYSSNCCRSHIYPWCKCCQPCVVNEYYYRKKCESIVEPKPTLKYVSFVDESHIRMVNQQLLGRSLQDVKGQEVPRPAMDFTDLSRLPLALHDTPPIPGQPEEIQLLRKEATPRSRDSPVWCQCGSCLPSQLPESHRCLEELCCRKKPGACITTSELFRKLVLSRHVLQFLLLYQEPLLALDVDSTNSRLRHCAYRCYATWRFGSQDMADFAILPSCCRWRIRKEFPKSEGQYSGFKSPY
- ASSAY NOTES: Alternate method for IL-1β release assay (differentiated THP-1 cells, BzATP-stimulated, ELISA)
- Assay type: cell-based
- ASSAY CONTEXT: P2X7; 0.3 μM compound (symbols * to ****); read-out: IL-1β % inhib @ 0.3 μM
Kindly supply the reported inhibition at 0.3 µM values for the records listed here.

For the compound CC1CCN(CC(=O)N2CCc3c(ncnc3NCC3C4CC5CC(C4)CC3C5)C2)CC1 (stereo not shown) [Compound 292] , give its measured inhibition at 0.3 µM value.
25 to 50%

For the compound O=C(CN1CCOCC1)N1CCc2c(ncnc2NCC2C3CC4CC(C3)CC2C4)C1 (stereo not shown) [Compound 272] , give its measured inhibition at 0.3 µM value.
0 to 25%

For the compound O=C(CN1CCC(c2ccccc2)CC1)N1CCc2c(ncnc2NCC2C3CC4CC(C3)CC2C4)C1 (stereo not shown) [Compound 294] , give its measured inhibition at 0.3 µM value.
0 to 25%

For the compound COc1cccc(CN(C)CC(=O)N2CCc3c(ncnc3NCC3C4CC5CC(C4)CC3C5)C2)c1 (stereo not shown) [Compound 308] , give its measured inhibition at 0.3 µM value.
0 to 25%

----------
- SYSTEM UNDER TEST: P2X7 receptor (Homo sapiens, UniProt Q99572)
- Construct: host or cells: THP-1 cells differentiated with LPS and IFN-γ
- ASSAY NOTES: Alternate method for IL-1β release assay (differentiated THP-1 cells, BzATP-stimulated, ELISA)
- Format: cell-based
- ASSAY CONTEXT: P2X7; 0.3 μM compound (symbols * to ****); read-out: IL-1β % inhib @ 0.3 μM
Kindly supply the reported inhibition at 0.3 µM values for the records listed here.

For the compound COCCN(C)CC(=O)N1CCc2c(ncnc2NCC2C3CC4CC(C3)CC2C4)C1 (centres unmarked) , give its measured inhibition at 0.3 µM value.
25 to 50%

For the compound O=C(CN1CCCCCC1)N1CCc2c(ncnc2NCC2C3CC4CC(C3)CC2C4)C1 (centres unmarked) , give its measured inhibition at 0.3 µM value.
0 to 25%

For the compound COc1ccc(CN(C)CC(=O)N2CCc3c(ncnc3NCC3C4CC5CC(C4)CC3C5)C2)cc1 (centres unmarked) , give its measured inhibition at 0.3 µM value.
25 to 50%

For the compound COc1ccc(CN2CCc3c(ncnc3NCC34CC5CC(CC(C5)C3)C4)C2)c(OC)c1 , give its measured inhibition at 0.3 µM value.
0 to 25%

For the compound FC(F)(F)Oc1ccc(CN2CCc3c(ncnc3NCC34CC5CC(CC(C5)C3)C4)C2)cc1 , give its measured inhibition at 0.3 µM value.
0 to 25%

For the compound Fc1cc(Cl)ccc1CN1CCc2c(ncnc2NCC23CC4CC(CC(C4)C2)C3)C1 , give its measured inhibition at 0.3 µM value.
> 75%

For the compound CC12CC3(C)CC(C)(C1)CC(CNc1ncnc4c1CCN(Cc1ccccc1)C4)(C2)C3 , give its measured inhibition at 0.3 µM value.
25 to 50%

For the compound N#Cc1cc(CN2CCc3c(ncnc3NCC34CC5CC(CC(C5)C3)C4)C2)ccc1F , give its measured inhibition at 0.3 µM value.
> 75%

Origin of values: patent US20100022531A1
